# ASSAY_NOTES: qHTS of pediatric cancer cell lines to identify multiple opportunities for drug repurposing: Primary screen for BT-12 cells (AID 1347101); also: nearly all actives have a fitted effect of over 25% in size
# CONDITION_NOTES: BT-12 viability, CellTiter-Glo luminescence, 48 h; series mostly up to 57.3 µM
Results filed as inconclusive are left out. The source made the active and inactive calls. Calls follow the shape of the dose curve; as a rule, active = well fitted cell-killing curve with a large enough effect; inconclusive = small, poorly fitted or top-dose-only effect; inactive = flat fitted curve, though single readings scatter.
Pick one and only one: active, inactive

| COMPOUND | CAT |
| --- | --- |
| CC(=O)OCC(=O)[C@@]12N=C(C)O[C@H]1C[C@H]1[C@@H]3CCC4=CC(=O)C=C[C@]4(C)[C@@H]3[C@@H](O)C[C@@]12C | inactive |

// query I would be grateful if you could indicate the recorded call for O=c1c(O)c(-c2ccc(O)c(O)c2)oc2cc(O)ccc12 .
// result active

// query Cool, now CCOc1cc2c(c(F)c1OCC)C(=N)N(CC(=O)c1cc(N3CCOCC3)c(OC)c(C(C)(C)C)c1)C2
// result active

// query Cool, now N#Cc1cc(NC(=O)Nc2nnc(-c3ccncc3)s2)ccc1-c1cn[nH]c1
// result inactive

// query Cool, now C=C1CCC2[C@](C)(CO)C(O)CC[C@]2(C)C1CC=C1C(=O)OCC1O (some centres undefined)
// result inactive

// query Cool, now CC(C)c1cnn2c(NCc3ccccc3)cc(NCCCCCCN)nc12
// result active

// query Cool, now CC(=O)O[C@]1(C(C)=O)CC[C@H]2[C@@H]3C=C(C)C4=CC(=O)CC[C@]4(C)[C@@H]3CC[C@@]21C
// result active

// query Cool, now Cn1cc(C=CC(=O)c2cccc(F)c2)cc1C=CC(=O)NO
// result inactive

// query Cool, now C[C@H]1O[C@H](O[C@H]2[C@H](O)[C@@H](O)[C@@H](O[C@H]3[C@H](O)[C@@H](O)C(O)O[C@H]3CO)O[C@H]2CO)[C@H](O)[C@@H](O)[C@H]1N[C@H]1C=C(CO)[C@@H](O)[C@H](O)[C@@H]1O (some centres undefined)
// result active

// query Cool, now C=CC(=O)N1CCc2ccc(-n3c(=O)ccc4cnc5ccc(-c6cnn(C)c6)cc5c43)cc21
// result active

// query Cool, now C[C@H](NCc1ccc2c(c1)nc(NC(=O)c1ccc(-c3cn[nH]c3)s1)n2CCc1ccccc1)C(C)(C)C
// result active

// query Cool, now O=C(Nc1cc2cc[nH]c2cn1)c1ccccc1
// result active

// query Cool, now C#Cc1cccc(Nc2ncnc3cc(OCCOC)c(OCCO)cc23)c1
// result active

// query Cool, now CC(C)N(CC[C@H](c1ccccc1)c1cc(CO)ccc1O)C(C)C
// result inactive

Each recorded value in this set is attributed to PubChem BioAssay (NCATS).
